// reported GI50 for each item listed
# System: HCT-116
# TEST PROTOCOL: NCI tumour cell line growth inhibition, 48 h
Calls of active or inactive are those of the source. Rule as the data show it: active = GI50 up to about 1.1 µM and inactive = higher.

MOLECULE	GI50
Cc1ccc(S(=O)(=O)ON2C(=O)c3c(N)c(C#N)c(-c4ccccc4)c(-c4ccccc4)c3C2=O)cc1	14.6 µM (inactive)
COC12OC3(C4OC41)C(C(=O)O[C@H]3CO[Si](C)(C)C(C)(C)C)C2S(=O)(=O)c1ccccc1 (stereo partly specified)	4.16 µM (inactive)
CCOC(OCC)C(CC)[Se]c1ccccc1[N+](=O)[O-] (stereo unspecified)	3.6 µM (inactive)
O=C1c2c(Br)sc(Br)c2[C@@H](Cl)[C@H]1Cl	22.8 µM (inactive)
COc1cc2c(cc1OC)[C@@H]1[C@H](C#N)C(=O)C(C)(C)N1CC2	> 100 µM (inactive)
N#Cc1ncn(-c2ccccc2)c1N	> 100 µM (inactive)
N#Cc1nc(-c2cccs2)oc1N	> 100 µM (inactive)
C/C(=N\Nc1nc2ccccc2s1)c1cccc[n+]1[O-]	7.55 µM (inactive)
NC1c2ccccc2Nc2ccccc21	3.23 µM (inactive)
Cc1sc(/N=C/c2c[nH]c3ccccc23)c(C#N)c1C	23.4 µM (inactive)
C[C@]12CC[C@H]3[C@@H](CCC4=CC(=O)C=C[C@@]43O)[C@@H]1CCC2=O	> 100 µM (inactive)
